Below, each entry is listed alongside its reported pKi.
test: Binding affinity to HCV NS3 protease; set-up: species or system Hepacivirus hominis
Units for pKi: none; it is -log10 of a concentration expressed in mol/L.

pKi in this record for CN(C)C(=O)[C@@H](NC(=O)CNC(=O)C(=O)[C@@H]1CCCC/C=C/CCCC[C@H](NC(=O)OC(C)(C)C)C(=O)N2CC3C([C@H]2C(=O)N1)C3(C)C)c1ccccc1 (single isomer, unassigned) : 8.30

For "CC(C)(C)NC(=O)N[C@H]1CCCCCCCCCC[C@@H](C(=O)C(N)=O)NC(=O)[C@H]2[C@H]3[C@@H](CN2C1=O)C3(C)C" the molecule record lists pKi as 7.23

For this molecule ( CC(C)(C)NC(=O)N[C@H](C(=O)N1CC2C([C@H]1C(=O)NC(CC1CCC1)C(=O)C(N)=O)C2(C)C)C(C)(C)C (single isomer, unassigned) ), measured pKi is 7.85

The molecule listed as "CN(C)C(=O)[C@@H](NC(=O)CNC(=O)C(=O)[C@@H]1CCCCCCCCCC[C@H](NC(=O)NC(C)(C)C)C(=O)N2C[C@@H]3[C@H]([C@H]2C(=O)N1)C3(C)C)c1ccccc1" has a reported pKi of 8.22

Note to self: pKi recorded for CC(C)(C)NC(=O)C(=O)[C@@H]1CCCCCCCCCC[C@H](NC(=O)OC(C)(C)C)C(=O)N2CC3C([C@H]2C(=O)N1)C3(C)C (single isomer, unassigned) was 5.22

More entries:
pKi measured on C=CCNC(=O)C(=O)[C@@H]1CCCCCCCCC[C@H](NC(=O)N[C@H](CN(C)S(=O)(=O)c2cccs2)C(C)(C)C)C(=O)N2CC3C([C@H]2C(=O)N1)C3(C)C (single isomer, unassigned) = 8.30

----------
assay: Binding affinity to HCV NS3 protease; parameters: species or system Hepacivirus hominis
Below: a set of entries, each annotated with reported pKi.
pKi here: minus log base 10 of the concentration, concentration in moles per litre.

Examples with their reported pKi follow.
Reported pKi of C=CCNC(=O)C(=O)[C@@H]1CCCCCCCCC[C@H](NC(=O)N[C@H](CN2C(=O)C3CCC(C3)C2=O)C(C)(C)C)C(=O)N2CC3C([C@H]2C(=O)N1)C3(C)C (single isomer, unassigned) : 8.52

Looking up C=CCNC(=O)C(=O)[C@@H]1CCCCCCCCC[C@H](NC(=O)N[C@H](CN2C(=O)CN(C)CC2=O)C(C)(C)C)C(=O)N2CC3C([C@H]2C(=O)N1)C3(C)C (single isomer, unassigned) , I see its pKi listed as 8.40

Lab note: CCCNC(=O)C(=O)[C@@H]1CCCCCCCCC[C@H](NC(=O)N[C@H](CN(C)S(=O)(=O)c2cccs2)C(C)(C)C)C(=O)N2CC3C([C@H]2C(=O)N1)C3(C)C (single isomer, unassigned) gave pKi of 7.85

The molecule CC1(NC(=O)N[C@H]2CCCCCCCCCC[C@@H](C(=O)C(N)=O)NC(=O)[C@@H]3C4C(CN3C2=O)C4(C)C)CCCCC1 (single isomer, unassigned) showed pKi equal to 7.44

As a next step, examine the molecule that follows.
pKi in this record for "C=CCNC(=O)C(=O)[C@@H]1CCCCCCCCC[C@H](NC(=O)N[C@H](CN2CCC(C)(C)CC2=O)C(C)(C)C)C(=O)N2C[C@@H]3[C@H]([C@H]2C(=O)N1)C3(C)C" : 8.70

----------
assay: Binding affinity to HCV NS3 protease; set-up: species or system Hepacivirus hominis
readoutKind: Ki (nM)
Please give a number only; it is taken to be in nM.

Examples with their reported Ki follow.
Ki reported for this compound "C=CCNC(=O)C(=O)[C@@H]1CCCCCCCCC[C@H](NC(=O)N[C@H](C(=O)C2CC2)C2CCCCC2)C(=O)N2C[C@@H]3[C@H]([C@H]2C(=O)N1)C3(C)C" : 6

// recorded Ki for CN(C[C@@H](NC(=O)N[C@H]1CCCCCCCCC[C@@H](C(=O)C(=O)NCC2CC2)NC(=O)[C@@H]2C3C(CN2C1=O)C3(C)C)C(C)(C)C)S(=O)(=O)c1cccs1 (single isomer, unassigned) : 21

Consider "CC(C)(C)OC(=O)[C@@H](NC(=O)N[C@H]1CCCCCCCCCC[C@@H](C(=O)C(N)=O)NC(=O)[C@@H]2[C@H]3[C@@H](CN2C1=O)C3(C)C)C(C)(C)C" . Its measured Ki is 37

Continuing:
Looking up C=CCNC(=O)C(=O)[C@@H]1CCCCCCCCC[C@H](NC(=O)N[C@H](CN2C(=O)c3ccccc3C2=O)C(C)(C)C)C(=O)N2CC3C([C@H]2C(=O)N1)C3(C)C (single isomer, unassigned) , I see its Ki listed as 16

Data point: CC(C)(C)OC(=O)N[C@H]1CCCCCCCCCC[C@@H](C(=O)C(N)=O)NC(=O)[C@@H]2C3C(CN2C1=O)C3(C)C (single isomer, unassigned) ; Ki = 59

----------
system: Hepatitis C virus; test: Antiviral activity against HCV by genotype 1 replicon based cellular assay; assay type: functional, Hepacivirus hominis
readoutKind: EC90 (nM)
Write the answer as a number in nM, unit excluded.

Summary line: "C=CCNC(=O)C(=O)[C@@H]1CCCCCCCCC[C@H](NC(=O)N[C@H](CN(C)S(C)(=O)=O)C(C)(C)C)C(=O)N2C[C@@H]3[C@H]([C@H]2C(=O)N1)C3(C)C" , Hepatitis C virus, reported EC90 = 55

Tested system Hepatitis C virus; EC90 recorded for C=CCNC(=O)C(=O)[C@@H]1CCCCCCCCC[C@H](NC(=O)N[C@H](C(=O)C2CC2)C(C)C)C(=O)N2CC3C([C@H]2C(=O)N1)C3(C)C (single isomer, unassigned) was 480

# value of EC90, Hepatitis C virus, item CC(C)[C@H](NC(=O)N[C@H]1CCCCCCCCC[C@@H](C(=O)C(N)=O)NC(=O)[C@@H]2C3C(CN2C1=O)C3(C)C)C(=O)C1CC1 (single isomer, unassigned) = 100

Considering "C=CCNC(=O)C(=O)[C@@H]1CCCCCCCCC[C@H](NC(=O)N[C@H](CN(C)S(=O)(=O)N(C)C)C(C)(C)C)C(=O)N2C[C@@H]3[C@H]([C@H]2C(=O)N1)C3(C)C" , its EC90 with Hepatitis C virus was recorded as 60

// compound "C=CCNC(=O)C(=O)[C@@H]1CCCCCCCCC[C@H](NC(=O)N[C@H](CN2Cc3sccc3S2(=O)=O)C(C)(C)C)C(=O)N2C[C@@H]3[C@H]([C@H]2C(=O)N1)C3(C)C" , assay Hepatitis C virus, EC90 value: 150

New cases:
Noted EC90 for CC1(C)C2CN3C(=O)[C@@H](NC(=O)N[C@H](C(=O)C4CC4)C4CCCCC4)CCCCCCCCC[C@@H](C(=O)C(N)=O)NC(=O)[C@@H]3C21 (single isomer, unassigned) , tested on Hepatitis C virus: 180

Observed EC90 on Hepatitis C virus, entry C=CCNC(=O)C(=O)[C@@H]1CCCCCCCCC[C@H](NC(=O)N[C@H](CN2C(=O)CN(C)CC2=O)C(C)(C)C)C(=O)N2CC3C([C@H]2C(=O)N1)C3(C)C (single isomer, unassigned) , equals 30

Hepatitis C virus assay, compound C=CCNC(=O)C(=O)[C@@H]1CCCCCCCCC[C@H](NC(=O)N[C@H](CN2C(=O)CC(C)(C)CC2=O)C(C)(C)C)C(=O)N2CC3C([C@H]2C(=O)N1)C3(C)C (single isomer, unassigned) , recorded EC90 = 20

Given the compound CC(C)(C)OC(=O)N[C@H]1CCCCCCCCCC[C@@H](C(=O)C(N)=O)NC(=O)[C@@H]2C3C(CN2C1=O)C3(C)C (single isomer, unassigned) and test system Hepatitis C virus, the measured EC90 is 900

The reported Hepatitis C virus EC90 of "C=CCNC(=O)C(=O)[C@@H]1CCCCCCCCC[C@H](NC(=O)N[C@H](C(=O)C2CC2)C2CCCCC2)C(=O)N2C[C@@H]3[C@H]([C@H]2C(=O)N1)C3(C)C" is 280

----------
Listed here: items and their measured Ki.
experiment: Binding affinity to HCV NS3 protease; parameters: species or system Hepacivirus hominis
Use nM as the unit, but write only the number.

// known answers, use as guide
Just so you know, measured Ki for "C=CCCCC[C@H](NC(=O)[C@@H]1[C@H]2[C@@H](CN1C(=O)[C@H](CCCCC=C)NC(=O)OC(C)(C)C)C2(C)C)C(=O)C(N)=O" came out at 250

Record summary for "CN(C[C@@H](NC(=O)N[C@H]1CCCCCCCCC[C@@H](C(=O)C(N)=O)NC(=O)[C@@H]2[C@H]3[C@@H](CN2C1=O)C3(C)C)C(C)(C)C)S(=O)(=O)c1cccs1" : reported Ki = 2

More entries:
Note to self: Ki recorded for "CC(C)(C)OC(=O)N[C@H]1CCCCCCCCCC[C@@H](C(=O)C(=O)NCC(=O)NCc2ccccc2)NC(=O)[C@@H]2[C@H]3[C@@H](CN2C1=O)C3(C)C" was 89
